koff listing for selected binders.
molecular target: T1, full length recombinant human 2N4R tau (human, UniProt P10636 1-758); experiment: SPR SCK, IgG on Protein A, tau in flow
T1 construct: bought from rPeptide; pHrodo Red maleimide-labelled where it stands in uptake assays; also called tau1-441; full length tau
T1 sequence (P10636 other isoform, or with tags, fused parts or gaps limits assumed): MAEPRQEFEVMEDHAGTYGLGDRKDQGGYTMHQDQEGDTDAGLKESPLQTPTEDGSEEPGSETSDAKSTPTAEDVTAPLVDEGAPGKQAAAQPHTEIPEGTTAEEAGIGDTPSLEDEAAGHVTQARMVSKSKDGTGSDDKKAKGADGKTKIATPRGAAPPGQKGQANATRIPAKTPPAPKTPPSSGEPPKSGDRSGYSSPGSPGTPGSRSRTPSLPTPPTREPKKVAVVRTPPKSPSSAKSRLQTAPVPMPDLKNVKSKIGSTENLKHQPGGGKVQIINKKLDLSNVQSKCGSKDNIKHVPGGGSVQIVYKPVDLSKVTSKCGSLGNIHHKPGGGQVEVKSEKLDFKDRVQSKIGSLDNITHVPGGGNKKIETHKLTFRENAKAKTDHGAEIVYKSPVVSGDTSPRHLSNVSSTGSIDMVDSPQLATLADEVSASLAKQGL
Numbers only here, please. The scale is s⁻¹.

Please review the entries below; each comes with its answer.
binder: #44_VH4VK4_H08/pVL (antibody, V domains shown, also called Clone VH4_H08; #44_VH4_H08) VH: QVQLQESGPGLVKPSETLSLTCTVSGIDLSSYAMAWVRQAPGKGLEWIGAIDAAGRTFYASWVKGRFTISKDTSKTTVDLQMTSLTAEDTATYFCARDSGAFDPWGQGTLVTVSS VL: DIQMTQSPSSLSASVGDRVTITCQASQSVYDNYLAWYQQKPGQPPKLLIHAASNLASGVPSRFSGSGSGTEFTLTISSLQPDDFATYYCLGEFSCTTTDCNVFGGGTKVEIK
koff (s⁻¹): 0.011

binder: #44_VH4_H13/L2 (antibody, V domains shown, also called Clone VH4_H13/L2) VH: QVQLQESGPGLVKPSETLSLTCTVSGIDLSSYAMAWVRQAPGKGLEWIGAIDSAGNTFYASWVKGRFTISKDTSKTTVDLQMTSLTAEDTATYFCARDSGAFDPWGQGTLVTVSS VL: DIQMTQSPSSLSASVGDRVTITCQASQSVYDNYLAWYQQKPGQPPKLLIHAASNLASGVPSRFSGSGSGTEFTLTISSLQPDDFATYYCLGEFSCQDTDCNVFGGGTKVEIKR
koff (s⁻¹): 0.00844

binder: #44_VH4_H06/L2 (antibody, V domains shown, also called Clone VH4_H06/L2) VH: QVQLQESGPGLVKPSETLSLTCTVSGIDLSSYAMAWVRQAPGKGLEWIGVIDAAGHTFYASWVKGRFTISKDTSKTTVDLQMTSLTAEDTATYFCARDSGTFDPWGQGTLVTVSS VL: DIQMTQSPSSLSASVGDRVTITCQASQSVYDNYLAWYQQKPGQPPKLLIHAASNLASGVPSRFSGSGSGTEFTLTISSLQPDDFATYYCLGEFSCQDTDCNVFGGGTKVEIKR
koff (s⁻¹): 0.00841

binder: #44_VH4_H07/L2 (antibody, V domains shown, also called Clone VH4_H07/L2) VH: QVQLQESGPGLVKPSETLSLTCTVSGIDLSSYAMAWVRQAPGKGLEWIGAIDAAGNTFYASWVKGRFTISKDTSKTTVDLQMTSLTAEDTATYFCARDSGAFDPWGQGTLVTVSS VL: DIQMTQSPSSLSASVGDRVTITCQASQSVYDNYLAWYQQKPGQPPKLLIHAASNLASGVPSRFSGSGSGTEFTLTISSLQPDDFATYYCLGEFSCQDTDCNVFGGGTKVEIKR
koff (s⁻¹): 0.0124

Prompt: Query: koff; subject: #44_VH4VK4_H19/pVL (antibody, V domains shown, also called Clone VH4_H19; #44_VH4_H19) VH: QVQLQESGPGLVKPSETLSLTCTVSGIDLSSYAMAWVRQAPGKGLEWIGAIDSRGATFYASWVKGRFTISKDTSKTTVDLQMTSLTAEDTATYFCARDSGAFDPWGQGTLVTVSS VL: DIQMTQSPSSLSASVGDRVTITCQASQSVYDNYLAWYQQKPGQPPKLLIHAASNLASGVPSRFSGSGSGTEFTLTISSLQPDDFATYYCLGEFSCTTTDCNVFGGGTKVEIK
Response: 0.0122
